target: biotinylated labeled human GPC3 protein (produced in-house) (human, UniProt P51654 25-559, limits assumed, biotinylated (Dojindo, Cat. No. LK03); sites not stated); experiment: ELISA, biotinylated human GPC3 protein
Reported endpoint: OD450 at 0.004 nM (OD450)
Give bare numbers, in OD450.

>  <Binder>
hAb003LH3L1 (antibody, human IgG1, V domains shown, Humanized F2.154.1; VH H3 + VL L1; expressed as human IgG1) VH: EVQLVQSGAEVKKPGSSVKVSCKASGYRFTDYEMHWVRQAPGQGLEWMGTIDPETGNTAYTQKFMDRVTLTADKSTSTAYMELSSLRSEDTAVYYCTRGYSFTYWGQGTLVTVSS VL: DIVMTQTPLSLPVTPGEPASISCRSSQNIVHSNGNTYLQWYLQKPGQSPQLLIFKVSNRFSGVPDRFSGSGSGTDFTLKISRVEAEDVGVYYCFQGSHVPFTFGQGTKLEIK

>  <Readout units>
OD450

>  <OD450 at 0.004 nM>
0.297

$$$$
>  <Binder>
hAb005LH3L1a (antibody, human IgG1, V domains shown, Humanized F3.54.12; VH H3 + VL L1a; expressed as human IgG1) VH: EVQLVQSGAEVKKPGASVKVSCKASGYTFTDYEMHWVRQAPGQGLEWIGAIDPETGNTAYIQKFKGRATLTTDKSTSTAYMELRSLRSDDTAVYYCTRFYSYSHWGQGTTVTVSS VL: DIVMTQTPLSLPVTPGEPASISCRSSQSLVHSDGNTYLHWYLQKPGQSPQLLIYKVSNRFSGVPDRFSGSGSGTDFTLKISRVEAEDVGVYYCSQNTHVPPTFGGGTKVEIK

>  <Readout units>
OD450

>  <OD450 at 0.004 nM>
0.049

$$$$
>  <Binder>
hAb007LH2L1 (antibody, human IgG1, V domains shown, Humanized F3.81.19; VH H2 + VL L1; expressed as human IgG1) VH: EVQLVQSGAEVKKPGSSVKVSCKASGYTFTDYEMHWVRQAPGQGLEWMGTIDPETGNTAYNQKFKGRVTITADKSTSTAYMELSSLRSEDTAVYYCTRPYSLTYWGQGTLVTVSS VL: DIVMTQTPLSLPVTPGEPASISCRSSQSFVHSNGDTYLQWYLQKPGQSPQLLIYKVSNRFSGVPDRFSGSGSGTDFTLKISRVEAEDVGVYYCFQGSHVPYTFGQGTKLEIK

>  <Readout units>
OD450

>  <OD450 at 0.004 nM>
0.233

$$$$
>  <Binder>
hAb007LH2L1b (antibody, human IgG1, V domains shown, Humanized F3.81.19; VH H2 + VL L1b; expressed as human IgG1) VH: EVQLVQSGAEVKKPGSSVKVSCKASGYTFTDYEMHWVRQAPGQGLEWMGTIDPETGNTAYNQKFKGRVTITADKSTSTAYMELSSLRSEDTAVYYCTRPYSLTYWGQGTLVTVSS VL: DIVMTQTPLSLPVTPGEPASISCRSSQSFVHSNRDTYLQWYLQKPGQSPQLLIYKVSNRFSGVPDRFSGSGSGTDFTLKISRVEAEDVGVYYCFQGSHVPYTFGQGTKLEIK

>  <Readout units>
OD450

>  <OD450 at 0.004 nM>
0.133

$$$$

Now take the following binder into account.
Form field: reported OD450 at 0.004 nM of hAb003LH1L1b (antibody, human IgG1, V domains shown, Humanized F2.154.1; VH H1 + VL L1b; expressed as human IgG1) VH: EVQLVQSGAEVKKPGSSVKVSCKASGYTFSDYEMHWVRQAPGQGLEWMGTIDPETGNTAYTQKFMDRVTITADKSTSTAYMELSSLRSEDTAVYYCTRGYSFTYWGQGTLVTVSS VL: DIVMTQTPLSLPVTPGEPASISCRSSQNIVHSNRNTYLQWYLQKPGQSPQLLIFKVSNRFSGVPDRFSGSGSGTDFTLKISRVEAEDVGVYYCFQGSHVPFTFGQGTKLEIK
0.371
